# assayed.system: hMC1R (Homo sapiens (Human))
# Sequence (Q01726 whole entry): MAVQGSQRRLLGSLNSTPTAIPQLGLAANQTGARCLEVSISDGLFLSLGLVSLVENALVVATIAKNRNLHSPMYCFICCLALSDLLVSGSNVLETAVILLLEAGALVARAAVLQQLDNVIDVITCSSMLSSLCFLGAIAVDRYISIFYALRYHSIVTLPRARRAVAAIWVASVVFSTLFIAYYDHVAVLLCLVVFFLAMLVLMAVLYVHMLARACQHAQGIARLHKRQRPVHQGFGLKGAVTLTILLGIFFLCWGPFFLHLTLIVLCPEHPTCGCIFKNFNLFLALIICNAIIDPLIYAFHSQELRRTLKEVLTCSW
# procedure.text: Transactivation test: melanocortin receptors (pCRE-Luc luciferase reporter), hMC1R
# particulars: HEK293 transfected with pCRE-Luc and hMC1R; products tested alone (agonist), 6 h incubation; % activity vs NDP-MSH 10 nM; IA: inactive
value.kind: pEC50
Quick note: pEC50 values are minus log10 of concentrations in mol/L.

CCCCCC1(C2CCCCC2)CN(C(=O)[C@@H](Cc2ccc(OC)cc2)NC(=O)CCc2c[nH]cn2)C1 [Compound 66] = 6.60
CCCCOC1(c2ccccc2C)CN(C(=O)[C@H](Cc2ccc(OC)cc2)NC(=O)CCc2c[nH]cn2)C1 [Compound 16] = 5.70
CCCCOC1(c2ccccc2)CN(C(=O)[C@H](Cc2ccc(OC)cc2)NC(=O)[C@H](Cc2c[nH]cn2)NC(=O)c2ccccc2)C1 [Compound 3] = 7.22

Recorded result, COc1ccc(C[C@@H](NC(=O)CCc2c[nH]cn2)C(=O)N2CC(O)(c3ccccc3C)C2)cc1 [Compound 29] , pEC50: 6.00

The values you see were collected from patent US9630949B2.
